- study.system: DRB1*0901 (Homo sapiens, UniProt P01903+P01911, A100R/A103E/D57H/D86V/F55Y/F60I/F76Y/I96F/K127E/L162R/M171V/P40D/Q125H/Q99R/R33Q/R42F/S133A/S66N/T210M/V115G/W38K/Y107V/Y59G/Y89S)
- test.summary: biochemical
- Assay type: binding
assay.readout: IC50

Known results for molecules:
Data point: CC[C@H](C)[C@H](NC(=O)[C@H](C)NC(=O)[C@H](CCCCN)NC(=O)[C@H](Cc1c[nH]cn1)NC(=O)[C@H](C)NC(=O)[C@H](CCCCN)NC(=O)[C@H](CO)NC(=O)[C@H](CCCCN)NC(=O)[C@H](CO)NC(=O)[C@@H](NC(=O)[C@H](CC(N)=O)NC(=O)[C@H](Cc1ccc(O)cc1)NC(=O)[C@H](C)N)[C@@H](C)CC)C(=O)N[C@@H](CCC(=O)O)C(=O)N[C@@H](CC(C)C)C(=O)O [Peptide 89.0159] ; IC50 = > 20 µM

Note to self: IC50 recorded for CC[C@H](C)[C@H](NC(=O)[C@H](CCCCN)NC(=O)[C@H](CCSC)NC(=O)[C@H](CC(=O)O)NC(=O)[C@H](CCCNC(=N)N)NC(=O)[C@H](CCC(=O)O)NC(=O)[C@H](CC(C)C)NC(=O)[C@H](CCCCN)NC(=O)[C@H](Cc1ccccc1)NC(=O)[C@@H](N)Cc1ccccc1)C(=O)N[C@@H](CC(N)=O)C(=O)N[C@@H](CS)C(=O)N[C@@H](CO)C(=O)NCC(=O)N[C@@H](CCCCN)C(=O)O [Peptide 68.0168] was > 20 µM

More entries:
According to the records, this molecule CC(C)C[C@H](NC(=O)[C@H](CCC(N)=O)NC(=O)[C@H](CCCCN)NC(=O)[C@@H](NC(=O)[C@H](CC(C)C)NC(=O)[C@H](CCC(N)=O)NC(=O)[C@@H](NC(=O)[C@H](C)NC(=O)[C@H](CO)NC(=O)[C@@H](NC(=O)[C@@H](NC(=O)[C@H](CC(=O)O)NC(=O)[C@@H](N)CC(=O)O)[C@@H](C)O)C(C)C)[C@@H](C)O)C(C)C)C(=O)N[C@@H](CCC(N)=O)C(=O)N[C@@H](Cc1c[nH]cn1)C(=O)O [Peptide 89.0162] displays IC50 of 1.97 µM
